Please respond with reported IC50, inhibition of SCF-dependent proliferation of M-07e cells for every item in the list.
subject-of-test: c-Kit expressed on the cell surface of M-07e cells (human, UniProt P10721 26-976)
Sequence (P10721 26-976): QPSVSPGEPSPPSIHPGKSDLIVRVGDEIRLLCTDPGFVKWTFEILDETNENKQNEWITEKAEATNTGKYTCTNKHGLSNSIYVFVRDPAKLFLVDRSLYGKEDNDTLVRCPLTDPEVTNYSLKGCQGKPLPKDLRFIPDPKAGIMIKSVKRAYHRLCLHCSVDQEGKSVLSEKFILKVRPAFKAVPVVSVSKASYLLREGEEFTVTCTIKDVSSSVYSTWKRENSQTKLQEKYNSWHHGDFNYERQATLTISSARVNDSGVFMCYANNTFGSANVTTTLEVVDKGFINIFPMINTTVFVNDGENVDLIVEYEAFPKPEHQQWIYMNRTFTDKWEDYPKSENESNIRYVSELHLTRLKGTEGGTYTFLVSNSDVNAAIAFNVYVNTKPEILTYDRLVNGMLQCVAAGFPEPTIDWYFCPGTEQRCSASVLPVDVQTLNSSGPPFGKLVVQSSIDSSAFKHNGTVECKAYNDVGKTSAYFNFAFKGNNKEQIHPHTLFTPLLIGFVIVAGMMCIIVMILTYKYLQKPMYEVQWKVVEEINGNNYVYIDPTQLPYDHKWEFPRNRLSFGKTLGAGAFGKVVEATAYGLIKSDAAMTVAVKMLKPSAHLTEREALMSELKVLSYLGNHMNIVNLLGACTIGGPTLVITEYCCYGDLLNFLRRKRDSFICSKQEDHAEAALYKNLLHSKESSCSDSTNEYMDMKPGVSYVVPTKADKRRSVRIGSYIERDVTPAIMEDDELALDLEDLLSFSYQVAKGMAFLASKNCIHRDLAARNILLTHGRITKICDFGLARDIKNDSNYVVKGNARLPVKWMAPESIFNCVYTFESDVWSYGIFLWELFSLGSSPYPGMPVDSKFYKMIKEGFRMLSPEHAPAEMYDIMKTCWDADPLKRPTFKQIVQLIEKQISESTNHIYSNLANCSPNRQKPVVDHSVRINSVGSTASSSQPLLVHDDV
measurement-notes: cell-based or functional assay
Please state the figure in nM; there is no need to write the unit.

For record hSR1-5 (antibody, human IgG1, kappa, V domains shown, also called humanized SR1-5; hSR1-H2 / hSR1-L2r) VH: QVQLVQSGAEVKKPGASVKVSCKASGYTFTSYNMHWVRQAPGQGLEWMGVIYSGNGDTSYAQKFQGRVTMTADTSTSTAYMELSSLRSEDTAVYYCARERDTRFGNWGQGTLVTVSS VL: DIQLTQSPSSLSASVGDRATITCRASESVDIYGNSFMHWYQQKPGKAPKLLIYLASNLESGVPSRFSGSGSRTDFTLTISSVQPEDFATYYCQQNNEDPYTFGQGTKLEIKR the listed IC50, inhibition of SCF-dependent proliferation of M-07e cells is 0.141

For record hSR1-3 (antibody, human IgG1, kappa, V domains shown, also called humanized SR1-3; hSR1-H2b / hSR1-L2) VH: QVQLVQSGAEVKKPGASVKVSCKASGYTFTSYNMHWVRQAPGQGLEWMGVIYSGNGDTSYAQKFQGRVTMTADKSTSTAYMELSSLRSEDTAVYYCARERDTRFGNWGQGTLVTVSS VL: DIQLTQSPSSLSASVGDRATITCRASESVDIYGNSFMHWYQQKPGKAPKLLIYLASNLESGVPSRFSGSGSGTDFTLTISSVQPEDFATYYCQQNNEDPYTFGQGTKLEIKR the listed IC50, inhibition of SCF-dependent proliferation of M-07e cells is 0.113

For record hSR1-1 (antibody, human IgG1, kappa, V domains shown, Humanized anti-c-Kit antibody; also called humanized SR1-1; hSR1-H2 / hSR1-L2) VH: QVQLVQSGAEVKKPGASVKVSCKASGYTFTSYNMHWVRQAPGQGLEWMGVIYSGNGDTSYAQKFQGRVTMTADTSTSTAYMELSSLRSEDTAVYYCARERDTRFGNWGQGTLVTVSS VL: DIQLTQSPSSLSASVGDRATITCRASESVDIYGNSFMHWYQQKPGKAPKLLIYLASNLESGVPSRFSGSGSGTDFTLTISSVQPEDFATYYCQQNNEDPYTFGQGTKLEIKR the listed IC50, inhibition of SCF-dependent proliferation of M-07e cells is 0.141

For record hSR1-4 (antibody, human IgG1, kappa, V domains shown, also called humanized SR1-4; hSR1-H3b / hSR1-L2) VH: QVQLVQSGAEVKKPGASVKMSCKASGYTFTSYNMHWVRQAPGQGLEWIGVIYSGNGDTSYAQKFQGRATLTADKSTSTAYMELSSLRSEDTAVYYCARERDTRFGNWGQGTLVTVSS VL: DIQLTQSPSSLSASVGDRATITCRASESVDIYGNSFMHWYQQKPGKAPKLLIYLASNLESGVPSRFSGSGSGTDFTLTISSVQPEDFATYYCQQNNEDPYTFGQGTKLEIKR the listed IC50, inhibition of SCF-dependent proliferation of M-07e cells is 0.139
